# run description: cn = amount concentration of the nth substance listed, in mol/dm3
# condition: 303.15 K; 101.3 kPa; Liquid; Vibrating tube method; c1 = 2.5
outcome measure: mass density (kg/m3)

compound	mass density / kg/m3
[Br-].[K+] [potassium bromide] + O	1197.23
[Cl-].[Na+] [sodium chloride] + O	1086.83
[Cl-].[K+] [potassium chloride] + O	1102.19
CC(=O)[O-].[K+] [potassium ethanoate] + O	1106.89

* * *

# run description: cn = amount concentration of the nth substance listed, in mol/dm3
# condition: 303.15 K; 101.3 kPa; Liquid; Vibrating tube method; c1 = 2
outcome measure: mass density (kg/m3)

compound	mass density, kg/m3
[Cl-].[K+] [potassium chloride] + O	1080.38
CC(=O)[O-].[K+] [potassium ethanoate] + O	1086.01
[Cl-].[Na+] [sodium chloride] + O	1073.49
[Br-].[K+] [potassium bromide] + O	1160.04
